B1: HDV Ribozyme (parent)
chain: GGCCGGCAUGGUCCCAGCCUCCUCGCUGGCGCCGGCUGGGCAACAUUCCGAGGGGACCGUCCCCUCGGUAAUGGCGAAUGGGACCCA

Variants of: B1
Experiment: self-cleavage, relative activity (ratio to wild type); higher = more cleavage; co-transcriptional
Binning rule for recorded self-cleavage: low: < 0.1; mid: ≥ 0.1 and < 0.7; high: ≥ 0.7

For orientation, consider the following solved cases.
C4A C85G
mid
C49A G68U
high
G17A C18U
mid
A8U C62A
high
C21G G73C
mid

Query string: For this variant, which bin applies? C21G C30G
Result string: low

Query string: For this variant, which bin applies? G17A A71G
Result string: mid

Query string: For this variant, which bin applies? A71G C86U
Result string: mid

Query string: For this variant, which bin applies? C3U A78G
Result string: mid

Query string: For this variant, which bin applies? C32A A83G
Result string: mid

Query string: For this variant, which bin applies? A56G A78U
Result string: mid

Query string: For this variant, which bin applies? G5A A87C
Result string: mid

Query string: For this variant, which bin applies? G31C G73C
Result string: mid

Query string: For this variant, which bin applies? G11C C22A
Result string: low

Query string: For this variant, which bin applies? C57U U72A
Result string: mid

Query string: For this variant, which bin applies? C4U A56U
Result string: high

Query string: For this variant, which bin applies? C48G
Result string: high

Query string: For this variant, which bin applies? G35U G38C
Result string: low

Query string: For this variant, which bin applies? C26A G74U
Result string: mid

Query string: For this variant, which bin applies? C7A C44G
Result string: low

Query string: For this variant, which bin applies? G55A A70U
Result string: high

Query string: For this variant, which bin applies? C58G C84A
Result string: high

Query string: For this variant, which bin applies? C14U G40A
Result string: high

Query string: For this variant, which bin applies? C21G C41U
Result string: low

Query string: For this variant, which bin applies? G11C G67A
Result string: mid

Query string: For this variant, which bin applies? C3G G28C
Result string: mid
